Let's look at some compounds and their measured pIC50.
# System: 276233-004-R-J1-PDC KRAS spheroids with HUVEC/MSC, viability;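 note: cells exposed to agents for seven days before viability read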
# methodSummary: Anticancer human tumor 276233-004-R-J1-PDC patient-derived colon adenocarcinoma cell line growth inhibition [KRAS2]
# conditionsUsed: curve of first compound; second compound 3.16 µM
Schema: pIC50 number; meaning minus log10 of the concentration expressed in molar units.

• CN(C)C/C=C/C(=O)Nc1cc2c(Nc3ccc(F)c(Cl)c3)ncnc2cc1O[C@H]1CCOC1 + CC1OCC2(CCN(c3cnc(Sc4ccnc(N)c4Cl)c(N)n3)CC2)C1N = 7.08

IN: Item: CC(=O)Nc1cccc(-n2c(=O)n(C3CC3)c(=O)c3c(Nc4ccc(I)cc4F)n(C)c(=O)c(C)c32)c1 + C=CC(=O)N1CCN(c2nc(OCC3CCCN3C)nc3c2CCN(c2cccc4cccc(C)c24)C3)CC1CC#N Test system: 276233-004-R-J1-PDC KRAS spheroids with HUVEC/MSC, viability Read-out: pIC50 Value: ?;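 note: cells exposed to agents for seven days before viability read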
OUT: 9.85
